Cited source: PubChem BioAssay (NCATS)

Exercise: for every item that follows, state its recorded activation.
- EXPERIMENT_SUMMARY: qHTS assay for environmental chemicals that activate the Aryl hydrocarbon Receptor (AhR) signaling pathway (AID 651777); further: % of control where 0% means no effect; nearly all actives have a fitted effect of over 15% in size
- TEST_CONTEXT: 1A2-DRE human hepatoma cells, luciferase, 24 h; hits give high values
Records with an inconclusive call do not appear. Active and inactive are the calls of the source. The call rests on the fitted dose curve; in most records, active means well fitted activation curve with a large enough effect; inconclusive means small, poorly fitted or top-dose-only effect; inactive means flat fitted curve, though single readings scatter.

Query block: Quick one: activation of `S=C=S` ?
Result block: 0.646% (inactive)

Query block: Please give the result for `C=CCN=C=S` too.
Result block: 0.264% (inactive)

Query block: Now consider ClC1C(Cl)C(Cl)C(Cl)C(Cl)C1Cl (stereo not given) and answer again.
Result block: 1.78% (inactive) [middle of 4 runs]

Query block: Can you check `CCCSP(=O)(OCC)SCCC` next?
Result block: -2.38% (inactive)

Query block: Now consider `O=CC=O` .
Result block: -1.42% (inactive)

---

- EXPERIMENT_SUMMARY: Validation screen for inhibitors of Lassa infection (AID 463096)
- TEST_CONTEXT: Lassa virus infection, cell-based; series mostly up to 46.1 µM
Results filed as inconclusive are left out. Calls of active or inactive are those of the source. Calls come from the whole dose curve.
Hi! Could you answer with just one of these? active, inactive

Query block: // return assay outcome for `CN(N=O)c1ccc(O)c(O)c1`
Result block: inactive

Query block: Then CN(C(=O)Cc1ccc(Cl)c(Cl)c1)C(CN1CCCC1)c1cccc(OCC(=O)O)c1 (stereo not given) ?
Result block: inactive

Query block: Moving on to the next molecule: CC(N)[C@H](O)c1ccc(O)c(O)c1 (stereo not given in full)
Result block: inactive

Query block: How about this molecule: `CCN(CCCl)Cc1ccccc1Br`
Result block: inactive

Query block: Repeat with `c1ccc2c(c1)[I+]c1ccccc1-2`
Result block: active

Query block: Would you kindly repeat that for `C=CCN1CC[C@]23c4c5ccc(O)c4O[C@H]2/C(=N/NC(=O)c2ccccc2)CC[C@@]3(O)[C@H]1C5` ?
Result block: inactive

Query block: Note, next up: NC(Cc1ccc(N(CCCl)CCCl)cc1)C(=O)O (stereo not given)
Result block: active

Query block: Lookup `Cc1[nH]c2ccc(O)cc2c1CCN`
Result block: inactive

Query block: Please answer likewise for CC(Cc1ccc(OCC(=O)O)cc1)NCC(O)c1cccc(Cl)c1 (stereo not given)
Result block: inactive

Query block: // repeat for COc1ccc2c(c1OC)C(=O)OC2C1c2cc3c(cc2CCN1C)OCO3 (stereo not given) and report
Result block: inactive

---

- EXPERIMENT_SUMMARY: Primary qHTS for inhibitors of nuclear receptor binding SET domain protein 2 (NSD2) in an isogenic RCH-ACV NSD2 p.E1099K mutant (9B) (AID 1645876); further: nearly all actives have a fitted effect of over 70% in size
- TEST_CONTEXT: RCH-ACV (leukaemia line) NSD2 E1099K (9B) viability, CellTiter-Glo, 72 h; series mostly up to 44.9 µM
Records with an inconclusive call do not appear. The source made the active and inactive calls. The call rests on the fitted dose curve; in most records, active means well fitted inhibition curve with a large enough effect; inconclusive means small, poorly fitted or top-dose-only effect; inactive means flat fitted curve, though single readings scatter.
The reply should be one of these categories: y for active, n for inactive

Query block: Hi team, can someone confirm the assay call for COC1C(O)C(OC2CCC3(C=O)C(CCC4C3CCC3(C)C(C5=CC(=O)OC5)CCC43O)C2)OC(C)C1OC1OC(CO)C(O)C(O)C1O (stereo not drawn) ?
Result block: y

Query block: Ok, now CC(=O)OC1CC(O)C(C)(C)C2CC(OC(C)=O)C3(C)C(CCC4(C)C(c5ccoc5)C(=O)C5OC543)C12C (stereo not drawn)
Result block: n

Query block: Entry to check: COC(=O)C1(C)CCC(=O)C2(C)c3c(O)cc(C(C)C)cc3C(O)C(OC(C)=O)C12 (stereo not drawn)
Result block: n

Query block: Also need N#CC(OC1OC(COC2OC(CO)C(O)C(O)C2O)C(O)C(O)C1O)c1ccccc1 (stereo not drawn) , thanks.
Result block: n

Query block: Input CCN1CC2(COC)C3[C@@H](OC)C4C1C3(C1C[C@]3(O)[C@H](OC(=O)c5ccccc5)C1[C@]4(OC(C)=O)[C@@H](O)[C@@H]3OC)[C@H](OC)C[C@H]2O (stereo partly drawn)
Result block: n

Query block: Note, next up: `CC(=O)c1c(O)c(C)c(O)c(Cc2c(O)c3c(c(C(=O)/C=C/c4ccccc4)c2O)OC(C)(C)C=C3)c1O`
Result block: n

Query block: One more compound: `COC1=CC(=O)O[C@@H](CCc2ccccc2)C1`
Result block: n

Query block: Entry to check: COC1CC(OC2CCC3(C=O)C(CCC4C3CCC3(C)C(C5=CC(=O)OC5)CCC43O)C2)OC(C)C1OC1OC(CO)C(O)C(O)C1O (stereo not drawn)
Result block: y

Query block: Repeat for the following compound: `Cn1ncnc1COc1nn2c(-c3c(F)cccc3F)nnc2cc1C1CCC1`
Result block: n

Query block: Another compound to look at: `COC(=O)N1CCN(C(=O)Cc2ccc(Cl)c(Cl)c2)[C@@H](CN2CCCC2)C1`
Result block: n

Query block: Try this compound too: `CCN1C[C@]2(COC(=O)c3ccccc3N3C(=O)C[C@H](C)C3=O)CC[C@H](OC)[C@@]34[C@@H]5C[C@H]6[C@H](OC)[C@@H]5[C@](O)(C[C@@H]6OC)[C@](O)([C@@H](OC)[C@H]23)[C@@H]14`
Result block: n

Query block: Same again, this time with `COC1=CC(=O)O[C@@H](/C=C/c2ccccc2)C1`
Result block: n

Query block: Next compound up: `C[C@]12CC[C@H]3[C@@H](CC[C@@]45O[C@@H]4C(O)=C(C#N)C[C@]35C)[C@@H]1CC[C@@H]2O`
Result block: y

Query block: Could you do the same for `COc1cc(C(=O)O[C@H]2[C@@H]3C=CO[C@@H](O[C@@H]4O[C@H](CO)[C@@H](O)[C@H](O)[C@H]4O)[C@@H]3[C@@]3(CO)O[C@@H]23)ccc1O` , please?
Result block: n

Query block: And then COC(=O)[C@@]12C(=O)C(C)C(=O)[C@]1(C)C(C)=C[C@H]1[C@]3(C=O)CC[C@H](OC(C)=O)C(C)(C)[C@H]3CC[C@@]12C (stereo partly drawn) , what is it?
Result block: n

Query block: // repeat for `CCN1C[C@]2(COC)[C@H](O)C[C@H](OC)[C@]34[C@@H]5C[C@]6(O)[C@H](OC(=O)c7ccccc7)[C@@H]5[C@@](O)([C@H]([C@H](OC)[C@H]23)[C@@H]14)[C@@H](O)[C@@H]6OC` and report
Result block: n

Query block: And for `Cc1cn(C[C@H](N)C(=O)O)c(=O)n(Cc2cc(-c3ccccc3)sc2C(=O)O)c1=O` ?
Result block: n

Query block: Here is the next compound: CC(C)C1(OO)C=C2C(=O)CC3C(C)(C(=O)O)CCCC3(C)C2CC1 (stereo not drawn)
Result block: n
